Target under test: T1, human TSLP (human, UniProt Q969D9 29-159)
T1 construct: also called hTSLP; rhTSLP
Protocol description: SPR
Listed here are binders together with their documented koff.
Report only the number, with the unit s⁻¹ understood.

Field: example entries. Status: answers known.
BDG38.116 (antibody, V domains shown, IgG1) VH: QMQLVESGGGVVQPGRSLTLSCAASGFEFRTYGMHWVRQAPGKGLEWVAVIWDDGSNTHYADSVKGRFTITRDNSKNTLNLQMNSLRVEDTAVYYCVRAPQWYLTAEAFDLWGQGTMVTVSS VL: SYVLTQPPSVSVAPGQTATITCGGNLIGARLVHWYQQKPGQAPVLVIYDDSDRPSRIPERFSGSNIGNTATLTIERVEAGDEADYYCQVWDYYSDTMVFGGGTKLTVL :: 3.95e-05
BDG38.112 (antibody, V domains shown, IgG1) VH: QMQLVESGGGVVQPGRSLRLSCAASGFEFRTYGMHWVRQAPGKGLEWLGVIWYDGSNTHYADSVKGRFTITRDNSKNTLNLQMNSLRAEDTAVYYCVRAPQWYLTAEAFDLWGQGTMVTVSS VL: SYILTQPPSVSVAPGQTATITCGGNLIGARLVHWYQQKPGQAPVLVIYDDSDRPSRIPERFSGSNIGNTATLTIERVEEGDEADYYCQVWDYSSDTYVFGGGTKLTVL :: 0.000274

Now let's try a different one.
*Q* Consider the binder shown here: BDG38.076 (antibody, V domains shown, IgG1) VH: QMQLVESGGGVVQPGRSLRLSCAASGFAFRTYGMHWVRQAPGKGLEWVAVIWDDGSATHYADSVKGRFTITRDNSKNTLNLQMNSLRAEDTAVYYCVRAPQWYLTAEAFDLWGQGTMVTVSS VL: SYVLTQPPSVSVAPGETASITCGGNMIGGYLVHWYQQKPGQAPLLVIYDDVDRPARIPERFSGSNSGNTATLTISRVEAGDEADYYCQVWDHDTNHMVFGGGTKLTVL What is its recorded koff?
*A* 3.22e-05
